These entries and their values trace back to ChEMBL document CHEMBL5154659.

Molecular target: Adenosine receptor A2a (Homo sapiens, UniProt P29274)
Sequence (P29274 whole entry): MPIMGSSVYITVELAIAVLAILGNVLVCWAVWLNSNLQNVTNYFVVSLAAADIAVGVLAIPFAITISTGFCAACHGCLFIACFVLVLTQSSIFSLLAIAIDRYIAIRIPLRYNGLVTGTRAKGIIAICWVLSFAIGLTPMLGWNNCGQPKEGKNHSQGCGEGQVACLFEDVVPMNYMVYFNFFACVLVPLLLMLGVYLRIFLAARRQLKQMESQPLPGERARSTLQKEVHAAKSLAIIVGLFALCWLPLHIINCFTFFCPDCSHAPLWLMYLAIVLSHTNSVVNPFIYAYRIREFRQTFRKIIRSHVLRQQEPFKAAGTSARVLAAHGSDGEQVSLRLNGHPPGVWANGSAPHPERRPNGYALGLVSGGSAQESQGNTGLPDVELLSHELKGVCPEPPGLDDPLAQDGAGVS
Assay: Binding affinity to human adenosine A2A receptor expressed in human HEK293 cell membrane at 10 uM by radioligand inhibition assay
Assay type: cell membranes
Parameter measured: inhibition (%)
The figure you give is taken to be in %; do not add the unit.

[Q] Report inhibition for CNC(=O)[C@@]12C[C@@H]1[C@@H](n1cnc3c(NCCc4ccc(O)c(OC)c4)nc(C#Cc4ccc(F)s4)nc31)[C@H](O)[C@@H]2O
[A] 32

[Q] Given the molecule CNC(=O)[C@@]12C[C@@H]1[C@@H](n1cnc3c(NCCc4ccc(OC)c(OC)c4)nc(C#Cc4ccc(Cl)s4)nc31)[C@H](O)[C@@H]2O , write its reported inhibition.
[A] 16

[Q] Give recorded inhibition. CNC(=O)[C@@]12C[C@@H]1[C@@H](n1cnc3c(NCCc4ccccc4)nc(C#Cc4ccc(Cl)s4)nc31)[C@H](O)[C@@H]2O
[A] 49
